target: human S1P receptor EDG-8 (S1P5) (Homo sapiens, UniProt Q9H228); experiment: S1P receptor profiling, GTP[γ-35S] binding SPA; settings: membranes of transfected CHO or RH7777 cells
Sequence (Q9H228 whole entry): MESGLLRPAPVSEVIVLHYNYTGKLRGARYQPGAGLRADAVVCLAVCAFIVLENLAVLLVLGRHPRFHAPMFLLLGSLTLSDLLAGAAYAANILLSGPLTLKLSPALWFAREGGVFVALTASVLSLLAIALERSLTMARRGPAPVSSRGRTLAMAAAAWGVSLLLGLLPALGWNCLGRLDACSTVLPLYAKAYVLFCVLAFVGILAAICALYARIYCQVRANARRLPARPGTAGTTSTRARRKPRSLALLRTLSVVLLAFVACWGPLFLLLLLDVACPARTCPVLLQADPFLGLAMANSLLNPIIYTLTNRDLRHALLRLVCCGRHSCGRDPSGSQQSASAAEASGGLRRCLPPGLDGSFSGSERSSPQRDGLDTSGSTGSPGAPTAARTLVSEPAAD
pEC50: −log10 of the molar value.
Each record here notes measured pEC50.

| Compound | pEC50 |
| --- | --- |
| CCCCCOc1ccc2cc(CC[C@@](C)(N)[C@@H](C)OP(=O)(O)O)ccc2c1 [Example 20] | 9.54 |
| CCCCCCCOc1ccc(CC[C@@](C)(N)[C@H](C)OP(=O)(O)O)cc1 [Example 19] | 9.82 |
| CCCCCCCOc1ccc(CC[C@@](C)(N)[C@@H](C)OP(=O)(O)O)cc1 [Example 18] | 9.13 |
